System: HEK-293T
Test: Multiplex assay against HEK293T;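 on Population Tubulin-Different-Phenotype (%): share of the cells with healthy nuclei that show this phenotype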
Format: toxicity, cell-based
Conditions: human, 24 h, 10 µM, compound concentration 10 uM, replicate 1
Threshold rule: Population Tubulin-Different-Phenotype (%) greater than or equal to 60% is met; below that, not met.

Study these solved cases before continuing.
{"COMPOUND": "CCCS(=O)(=O)c1nc(NC2CC2)cc(-c2ccc3c(ccn3C3CC(C)(C)NC(C)(C)C3)c2)n1", "ANSWER LABEL": "not met"}
{"COMPOUND": "CCc1cccc(CC)c1NC(=O)c1nn(C)c2c1CCc1cnc(Nc3ccc(N4CCN(C)CC4)cc3OC)nc1-2", "ANSWER LABEL": "met"}
{"COMPOUND": "CN(C)C(=O)C(CCN1CCC(O)(c2ccc(Cl)cc2)CC1)(c1ccccc1)c1ccccc1.Cl [LOPERAMIDE HYDROCHLORIDE]", "ANSWER LABEL": "met"}

[in] Could you tell me if the measured Population Tubulin-Different-Phenotype (%) of Cc1cc(C)c(S(=O)(=O)N(Cc2ccc(-c3cccc(S(C)(=O)=O)c3)cc2)Cc2ccc(C(F)(F)F)o2)c(C)c1 reaches 60% or more?
[out] met

[in] And for O=C(Nc1ccc(-c2ccnc(Nc3ccc(N4CCOCC4)cc3)n2)cc1)[C@@H]1CCCN1 ?
[out] met

* * *

Provide the recorded Population Fragmented Nuclei (%) for the entries that follow.
System: U2OS
Experiment: Multiplex assay against U2OS
Type: toxicity, cell-based
Conditions: human, 24 h, 10 µM, compound concentration 10 uM, replicate 1
Give bare numbers, in %.

These solved cases illustrate the format of a correct answer.
{"COMPOUND": "CCn1c(=O)c(-c2ccc(-c3cncs3)cc2Cl)cc2cnc(Nc3ccc(N4CCN(C)CC4)cc3)nc21", "MEASURED ON": "U2OS", "QUANTITY UNIT": "%", "Population Fragmented Nuclei (%)": 30}
{"COMPOUND": "Cl.O=c1c2cccn2c2ccccc2n1CCCN1CCC(c2ccc(Cl)cc2)CC1", "MEASURED ON": "U2OS", "QUANTITY UNIT": "%", "Population Fragmented Nuclei (%)": 21}
{"COMPOUND": "CCOC(=O)c1c(C)[nH]c2ccc3c(c12)CN1CCc2cc(OC)ccc2C1O3 (stereo not drawn)", "MEASURED ON": "U2OS", "QUANTITY UNIT": "%", "Population Fragmented Nuclei (%)": 13}
{"COMPOUND": "CCc1cccc(CC)c1NC(=O)c1nn(C)c2c1CCc1cnc(Nc3ccc(N4CCN(C)CC4)cc3OC)nc1-2", "MEASURED ON": "U2OS", "QUANTITY UNIT": "%", "Population Fragmented Nuclei (%)": 10}
{"COMPOUND": "Cc1ccc2nc(NCCN)c3ncc(C)n3c2c1.O=C(O)C(F)(F)F.O=C(O)C(F)(F)F", "MEASURED ON": "U2OS", "QUANTITY UNIT": "%", "Population Fragmented Nuclei (%)": 27}
{"COMPOUND": "CCCS(=O)(=O)c1nc(NC2CC2)cc(-c2ccc3c(ccn3C3CC(C)(C)NC(C)(C)C3)c2)n1", "MEASURED ON": "U2OS", "QUANTITY UNIT": "%", "Population Fragmented Nuclei (%)": 80}
{"COMPOUND": "COCC(=O)NC/C=C/c1ccc2ncnc(Nc3ccc(Oc4ccc(C)nc4)c(C)c3)c2c1", "MEASURED ON": "U2OS", "QUANTITY UNIT": "%", "Population Fragmented Nuclei (%)": 20}

Now for the compound whose Population Fragmented Nuclei (%) we want.
[in] # query: Population Fragmented Nuclei (%) of entry Cn1nc(C(F)(F)F)cc1-c1cnc(N2CCc3cc(S(=O)(=O)Nc4c(F)cc(Cl)cc4F)cc(N4CCCC4=O)c32)nc1
[out] 3

* * *

Test system: U2OS
Assay: Multiplex assay against U2OS
Format: toxicity, cell-based
Details: human, 12 h, 10 µM, compound concentration 10 uM, replicate 2
ATTRIBUTE MEASURED: Population Apoptotic (%)
Give bare numbers, in %.

{"COMPOUND": "CN1C2CCC1CC(OC(c1ccc(F)cc1)c1ccc(F)cc1)C2.Cl (stereo not drawn)", "VAL": 80}
{"COMPOUND": "CCOC(=O)c1c(C)[nH]c2ccc3c(c12)CN1CCc2cc(OC)ccc2C1O3 (stereo not drawn)", "VAL": 80}

Okay, next one:
[in] Record request: Population Apoptotic (%) value, item Cl.O=c1c2cccn2c2ccccc2n1CCCN1CCC(c2ccc(Cl)cc2)CC1
[out] 78

* * *

System: HEK-293T
Assay: Multiplex assay against HEK293T
Assay type: toxicity, cell-based
Settings: human, 24 h, 10 µM, compound concentration 10 uM, replicate 2
Give measured Population Hoechst High Intensity Objects (%) for each item. Keep answers brief.
Give bare numbers, in %.

{"MOLECULE": "CCc1cccc(CC)c1NC(=O)c1nn(C)c2c1CCc1cnc(Nc3ccc(N4CCN(C)CC4)cc3OC)nc1-2", "QUANTITY UNIT": "%", "VAL": 3}
{"MOLECULE": "COC(=N)c1nc2ccc3ncnc(Nc4ccc(OC)cc4F)c3c2s1", "QUANTITY UNIT": "%", "VAL": 3}
{"MOLECULE": "O=C(Nc1cccnn1)N1CCC(=Cc2cccc(Oc3ccc(C(F)(F)F)cn3)c2)CC1", "QUANTITY UNIT": "%", "VAL": 3}

[in] Form field: Population Hoechst High Intensity Objects (%) recorded for COc1cccc2cc(-c3nc([C@H]4CC[C@H](C(=O)O)CC4)n4ncnc(N)c34)[nH]c12 [OSI-027] with HEK-293T (enter value)
[out] 5

* * *

Tested on: Fibroblast
Assay: Multiplex assay against human fibroblast
Format: toxicity, cell-based
Details: 24 h, 10 µM, compound concentration 10 uM, replicate 1
ATTRIBUTE MEASURED: Total Cell Count
Answers are plain numbers.

Example entries and their recorded answers appear below.
{"MOLECULE": "CNC(=O)c1ccc(Nc2nc(OC3CCCC3)c3c(-c4ccc5nc(C)oc5c4)c[nH]c3n2)c(OC)c1", "Total Cell Count": 193}
{"MOLECULE": "CCc1cccc(CC)c1NC(=O)c1nn(C)c2c1CCc1cnc(Nc3ccc(N4CCN(C)CC4)cc3OC)nc1-2", "Total Cell Count": 262}
{"MOLECULE": "O=C(Nc1ccc(Cl)cc1)Nc1cccc(-c2cccc(N3CCCC3)n2)c1", "Total Cell Count": 145}
{"MOLECULE": "Cl.Oc1ccc2c3c1O[C@H]1c4[nH]c5c(c4C[C@@]4(O)[C@@H](C2)N(CC2CC2)CC[C@]314)C[C@@]1(O)[C@H]2Cc3ccc(O)c4c3[C@@]1(CCN2CC1CC1)[C@H]5O4", "Total Cell Count": 178}
{"MOLECULE": "O=C(Nc1cccnn1)N1CCC(=Cc2cccc(Oc3ccc(C(F)(F)F)cn3)c2)CC1", "Total Cell Count": 179}

Batch: Total Cell Count for all items listed.
1. CCOc1cc2ncc(C#N)c(Nc3ccc(OCc4ccccn4)c(Cl)c3)c2cc1NC(=O)/C=C/CN(C)C [NERATINIB]
2. C=CCn1c(=O)c2cnc(Nc3ccc(N4CCN(C)CC4)cc3)nc2n1-c1cccc(C(C)(C)O)n1 [ADAVOSERTIB]
3. CCCn1c(=O)c2[nH]c(-c3cnn(Cc4cccc(C(F)(F)F)c4)c3)nc2n(CC)c1=O [GS 6201]

[out]
[651, 241, 224]

[in] Report Total Cell Count for CN1CCN(C(=O)C(C)(C)c2ccc(C(=O)Nc3cn4cc(-c5cc(C(C)(C)C)cc(C(C)(C)C)c5)ccc4n3)cc2)CC1 [T3-CLK-N] tested on Fibroblast.
[out] 245

* * *

System: U2OS
Assay: Multiplex assay against U2OS
Assay type: toxicity, cell-based
Details: human, 24 h, 1 µM, compound concentration 1 uM, replicate 2
Lab note: compare Population Apoptotic (%) with 50%, writing Y if less and N if equal or more.

{"COMPOUND STRUCTURE STRING": "CCN1CCN(Cc2ccc(Nc3ncc(F)c(-c4cc(F)c5nc(C)n(C(C)C)c5c4)n3)nc2)CC1.CS(=O)(=O)O", "MEASURED ON": "U2OS", "ANSWER LABEL": "N"}
{"COMPOUND STRUCTURE STRING": "O=C1NC(=O)C(c2cnc3ccccn23)=C1c1cn2c3c(cc(F)cc13)CN(C(=O)N1CCCCC1)CC2", "MEASURED ON": "U2OS", "ANSWER LABEL": "N"}
{"COMPOUND STRUCTURE STRING": "CN1CCN(C(=O)C(C)(C)c2ccc(C(=O)Nc3cn4cc(-c5cc(C(C)(C)C)cc(C(C)(C)C)c5)ccc4n3)cc2)CC1", "MEASURED ON": "U2OS", "ANSWER LABEL": "Y"}
{"COMPOUND STRUCTURE STRING": "COc1cccc2cc(-c3nc([C@H]4CC[C@H](C(=O)O)CC4)n4ncnc(N)c34)[nH]c12", "MEASURED ON": "U2OS", "ANSWER LABEL": "Y"}

[in] Regarding O=C(Nc1ccc(-n2nc(-c3cccnc3)cc2C(F)(F)F)cn1)c1ccc(-c2ccccc2)c(F)c1 , kindly confirm whether its Population Apoptotic (%) is beneath 50%.
[out] Y

src = ChEMBL document CHEMBL4689842
